System: Candida albicans
Assay: Antifungal activity against Candida albicans NRRL Y-477 using 100 uL of test compound after 48 hrs by agar well diffusion method
Type: functional
Outcome measure: diameter of the inhibition zone (DIZ)

Hi, could you look up diameter of the inhibition zone (DIZ) for each item in my list?
1. CC(O)(Cc1cn(Cc2ccccc2)nn1)c1ccc(S(=O)(=O)c2ccccc2)cc1 (centres undefined)
2. CC(Cc1cn(Cc2ccccc2)nn1)(OCc1cn(Cc2ccccc2)nn1)c1ccc(S(=O)(=O)c2ccccc2)cc1 (centres undefined)
3. O=C(Cn1cc(CC(O)c2ccc(S(=O)(=O)c3ccccc3)cc2)nn1)c1ccccc1 (centres undefined)
4. CC(O)(Cc1cn(CC(=O)c2ccc(Br)cc2)nn1)c1ccc(S(=O)(=O)c2ccccc2)cc1 (centres undefined)
5. O=S(=O)(c1ccccc1)c1ccc(C(O)Cc2cn(Cc3ccccc3)nn2)cc1 (centres undefined)
6. CC(O)(Cc1cn(CC(=O)c2ccc(S(=O)(=O)c3ccccc3)cc2)nn1)c1ccc(S(=O)(=O)c2ccccc2)cc1 (centres undefined)

Resp:
19 mm
16 mm
12 mm
15 mm
19 mm
15 mm

Hi, could you look up diameter of the inhibition zone (DIZ) for each item in my list?
1. CC(O)(Cc1cn(CC(=O)c2ccc(F)cc2)nn1)c1ccc(S(=O)(=O)c2ccccc2)cc1 (centres undefined)
2. CC(Cc1cn(CC(=O)c2ccc(Br)cc2)nn1)(OCc1cn(CC(=O)c2ccc(Br)cc2)nn1)c1ccc(S(=O)(=O)c2ccccc2)cc1 (centres undefined)

Resp:
["15 mm", "15 mm"]

----------
Experiment: Antioxidant activity assessed as DPPH free radical scavenging activity by spectrophotometric assay
Type: physicochemical
Outcome measure: IC50 (µg/mL)
One number for each entry, in µg/mL.

Compound	Measurement unit	IC50
CC(Cc1cn(CC(=O)c2ccc(S(=O)(=O)c3ccccc3)cc2)nn1)(OCc1cn(CC(=O)c2ccc(S(=O)(=O)c3ccccc3)cc2)nn1)c1ccc(S(=O)(=O)c2ccccc2)cc1 (centres undefined)	µg/mL	600
CC(Cc1cn(Cc2ccccc2)nn1)(OCc1cn(Cc2ccccc2)nn1)c1ccc(S(=O)(=O)c2ccccc2)cc1 (centres undefined)	µg/mL	600

Req: # input compound: O=C(Cn1cc(CC(O)c2ccc(S(=O)(=O)c3ccccc3)cc2)nn1)c1ccc(Br)cc1 (centres undefined) ; wanted: its IC50
Resp: 500
